Origin of measurements: patent US4465851A

- METHOD_DESCRIPTION: Acute toxicity in mice
- RUN_PARAMETERS: mouse, in vivo, po
Where a name gives a salt, the structure may show the parent alone.
PROPERTY: LD50 at 168 h (mg/kg)
Just the number in mg/kg, nothing appended.

Recorded result, CC(C)(C)c1ccc(OC(=O)[C@H]2CC[C@H](CNC(=N)N)CC2)cc1 [Compound 2, hydrochloride] , LD50 at 168 h: 7300

----------
Counter-ions that a name gives are not always drawn.
The listing below reports pIC50 for compounds tested on Plasmin (Homo sapiens).
Sequence (P00747 97-580 limits assumed, species assumed): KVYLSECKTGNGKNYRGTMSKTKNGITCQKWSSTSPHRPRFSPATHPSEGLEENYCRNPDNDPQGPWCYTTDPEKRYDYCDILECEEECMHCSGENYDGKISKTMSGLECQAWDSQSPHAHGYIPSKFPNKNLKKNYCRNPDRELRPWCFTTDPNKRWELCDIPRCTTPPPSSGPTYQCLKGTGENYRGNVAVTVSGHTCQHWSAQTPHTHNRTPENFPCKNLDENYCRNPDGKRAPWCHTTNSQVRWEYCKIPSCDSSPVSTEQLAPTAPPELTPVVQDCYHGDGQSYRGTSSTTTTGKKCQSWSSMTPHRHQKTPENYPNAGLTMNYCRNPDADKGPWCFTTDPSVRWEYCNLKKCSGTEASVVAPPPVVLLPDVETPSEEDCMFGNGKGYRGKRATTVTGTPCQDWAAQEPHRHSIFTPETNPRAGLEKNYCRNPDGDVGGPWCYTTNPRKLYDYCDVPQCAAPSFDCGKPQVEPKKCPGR
Entry type: numeric. Quantity: pIC50, the -log10 of concentration in molar units.

Worked examples follow.
[[record]]
compound = "N#Cc1ccccc1OC(=O)[C@H]1CC[C@H](CNC(=N)N)CC1 [Compound 21, hydrochloride]"
numeric_readout = 3.70

[[record]]
compound = "CC(C)(C)c1ccc(OC(=O)[C@H]2CC[C@H](CNC(=N)N)CC2)cc1 [Compound 2, hydrochloride]"
numeric_readout = 3.59


Would you kindly look at the next entry?
The reported value for Cc1cc(OC(=O)[C@H]2CC[C@H](CNC(=N)N)CC2)c(C(C)C)cc1Cl [Compound 14, hydrochloride] in terms of pIC50 is 3.40
